- TARGET: Fuc(a1-3)[Gal3S(b1-4)]GlcNAc
- METHOD_SUMMARY: glycan array binding signal (z-score within array); higher = stronger binding
- MEASUREMENT_PARAMETERS: glycan notation: IUPAC condensed, linker removed
The full list was thinned out, with the strongest signals kept by preference.
READOUT_TYPE: glycan array binding signal (z-score)
Answer with the value's number alone.

Here is how some binders turned out for glycan array binding signal (z-score).
# BINDER, READOUT_TYPE, OBS_VALUE
rows = [
    ("SJCP1084 (Schistosoma japonicum) (protein) MRIINLVIISTALLLINLLQTKSQANGEDTKNGTPDDPGLTKSTELKVEVQALLKDKKTNMRVKWNENLLDNTKPEYHNLRDEACELLLQIVRSVVPLSQDDGECKDVTFTKYVVGTKDGAVNVKLTITFKDSVAINQKPMDLKLKLENDFKNLQSESTLKATKPTFTVKVEKRLIPISKPQTTPPTTAKNDASKENVGDIGGEDSTVPTAAPATAASANEEKDEGDKDNKDSQHPNVLTSNVNDRNLIIALVALMILAIGVALTAAVKQR", "glycan array binding signal (z-score)", -1.01),
    ("Mg1lysM (Mycosphaerella graminicola) (protein) QRNPITITPQFDCGATNSQQYVARSGDTLTKIAQEIYHDVVGVCDIARANNLADPNRIDAGTPYTIPINCQTYDRNSCL", "glycan array binding signal (z-score)", -0.075),
    ("Vd2LysM (Verticillium dahliae) (protein) YRRTCSHTGKGEGWYIIRRGDNFNAVAADFCTSTNVLTEWNHISTITDNMVNTKIKVPCRWNAGKQRDCLKDQKSSNGWYHIVSGDELKDIAYDFCTTSGSLAGMNGISNPDYIKANTDIVVPCSWN", "glycan array binding signal (z-score)", 0.699),
]

Please examine the following record next.
What value of measured glycan array binding signal (z-score) is listed for Spy 2007 (Streptococcus pyogenes), Q99XV3 (protein) MKKGFFLMAMVVSLVMIAGCDKSANPKQPTQGMSVVTSFYPMYAMTKEVSGDLNDVRMIQSGAGIHSFEPSVNDVAAIYDADLFVYHSHTLEAWARDLDPNLKKSKVDVFEASKPLTLDRVKGLEDMEVTQGIDPATLYDPHTWTDPVLAGEEAVNIAKELGRLDPKHKDSYTKNAKAFKKEAEQLTEEYTQKFKKVRSKTFVTQHTAFSYLAKRFGLKQLGISGISPEQEPSPRQLKEIQDFVKEYNVKTIFAEDNVNPKIAHAIAKSTGAKVKTLSPLEAAPSGNKTYLENLRANLEVLYQQLK ? 0.277

Origin of measurements: the supplement of paper PMC8728848
